Target: T1, CD96 (UniProt P40200 22-585, limits assumed)
T1 construct: whole, on cells
T1 sequence (looked up): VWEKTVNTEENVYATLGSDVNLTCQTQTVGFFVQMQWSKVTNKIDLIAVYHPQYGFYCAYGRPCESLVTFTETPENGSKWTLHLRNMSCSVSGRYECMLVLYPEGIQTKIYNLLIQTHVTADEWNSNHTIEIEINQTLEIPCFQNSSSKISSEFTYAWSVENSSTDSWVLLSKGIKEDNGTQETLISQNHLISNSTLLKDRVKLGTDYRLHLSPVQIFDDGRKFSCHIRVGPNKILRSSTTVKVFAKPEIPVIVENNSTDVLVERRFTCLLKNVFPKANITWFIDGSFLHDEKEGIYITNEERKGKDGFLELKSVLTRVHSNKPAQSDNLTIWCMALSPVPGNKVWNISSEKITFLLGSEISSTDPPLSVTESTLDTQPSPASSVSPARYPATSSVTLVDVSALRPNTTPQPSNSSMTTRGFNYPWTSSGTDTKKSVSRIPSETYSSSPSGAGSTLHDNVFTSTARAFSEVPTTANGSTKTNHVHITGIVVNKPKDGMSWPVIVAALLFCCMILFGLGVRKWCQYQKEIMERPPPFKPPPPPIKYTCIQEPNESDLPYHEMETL
Assay: flow cytometry, Fc fusion at 100 nM, CD96-transfected cells
experimental_readout: MFI at 100 nM (MFI)
Answers are plain numbers, in MFI.

variant CD155 IgV-Fc S42N/S52Q/Q62F (Fc fusion, not shown: a dimerising Fc or GST) WPPPGTGDVVVQAPTQVPGFLGDSVTLPCYLQVPNMEVTHVNQLTWARHGEQGSMAVFHQTFGPSYSESKRLEFVAARLGAELRNASLRMFGLRVEDEGNYTCLFVTFPQGSRSVDIWLRVL : 1740

Please turn your attention to the following entry.
(Q) # lookup: MFI at 100 nM of variant CD155 IgV-Fc S52E (Fc fusion, not shown: a dimerising Fc or GST) WPPPGTGDVVVQAPTQVPGFLGDSVTLPCYLQVPNMEVTHVSQLTWARHGEEGSMAVFHQTQGPSYSESKRLEFVAARLGAELRNASLRMFGLRVEDEGNYTCLFVTFPQGSRSVDIWLRVL
(A) 1800
